Entry source: patent US20240208998A1

test system: HCT116 (colon); assay: Antiproliferative activity on other tumour cell lines (CellTiter-Glo): HCT116; format: cell-based; settings: Homo sapiens; HCT 116, 72 h of treatment
# maps each entry to its EC50
Give just the numeric value; µM need not be written.

Worked cases, answers included:
> print(dat)
                         compound.structure  unit.of.measure  measured.value
1  Cc1[nH]c2ccccc2c1-c1csc(NC(=O)Cc2c[nH]c3ccc(O)cc23)n1               µM            16.4
2  Cc1[nH]c2ccccc2c1-c1csc(NC(=O)Cc2cn3ccsc3n2)n1               µM            12.1

Which EC50 reading was recorded for the molecule Cc1[nH]c2ccccc2c1-c1csc(NC(=O)Cc2c[nH]c3ccc(F)cc23)n1 ? 6.8
